- procedure_details: Chemical stability at pH 1.2 assessed as compound remaining at 50 degC after 14 days
- Format: physicochemical
- condition_description: buffer, read-out: Stability
measured_endpoint: remaining at 336 h (%)
Number in %, nothing else.

Challenge: Entry COc1ccc(-n2ncc3c(NC(C4CC4)C4CC4)nc(C)nc32)c(C)c1 : reported remaining at 336 h = ?
Response given: 51

----------
- target_under_test: Corticotropin-releasing factor receptor 1 (Homo sapiens, UniProt P34998)
- procedure_details: Antagonist activity at human recombinant CRF1 receptor expressed in CHO cells assessed as inhibition of CRF-induced cAMP production
The reader will find reported pKi values listed item by item below.
Scale note: pKi = -log10(concentration in M).

Below are worked cases with known answers.
>>> reported("CCCN(CC(=O)N(C)C)c1nc(C)nc2c1c(C)nn2-c1ccc(OC)cc1C")
5.85
>>> reported("CCCCN(CC)c1nc(C)nc2c1c(C)nn2-c1c(C)cc(C)cc1C")
8.05
>>> reported("CCCN(CCOC)c1nc(C)nc2c1c(C)nn2-c1cnc(N(C)C)cc1C")
6.74
>>> reported("CCCN(CCOC)c1nc(C)nc2c1c(C)nn2-c1ccc(C#N)cc1C")
7.00

// next entry
Challenge: Please provide the recorded pKi for CC[C@@H](CO)Nc1nc(C)nc2c1c(C)nn2-c1ccc(OC)cc1C , tested on Corticotropin-releasing factor receptor 1 (Homo sapiens, UniProt P34998).
Response given: 6.21

----------
- System: Liver microsomes
- procedure_details: Intrinsic clearance in human liver microsomes assessed per mg of protein
- Type: ADME, Microsome
measured_endpoint: clearance (µL/min/mg)
Number in µL/min/mg, nothing else.

Challenge: Entry CCCNCc1cncn1Nc1nc(C)nc2c1c(C)nn2-c1ccc(OC)cc1C : reported clearance = ?
Response given: 196

----------
- procedure_details: Clearance in rat at 0.1 mg/kg, iv and 5 mg/kg, po
- Format: ADME, organism-based
- condition_description: in vivo
measured_endpoint: clearance (mL/min/kg)
Number in mL/min/kg, nothing else.

Challenge: Entry COc1ccc(-n2ncc3c(NC(C4CC4)C4CC4)nc(C)nc32)c(C)c1 : reported clearance = ?
Response given: 27

----------
- procedure_details: Bioavailability in rat at 0.1 mg/kg, iv and 5 mg/kg, po
- Format: ADME, organism-based
- condition_description: in vivo
measured_endpoint: bioavailability (%)
Number in %, nothing else.

Challenge: Entry COc1ccc(-n2ncc3c(NC(C4CC4)C4CC4)nc(C)nc32)c(C)c1 : reported bioavailability = ?
Response given: 43

----------
- procedure_details: Volume of distribution in rat at 0.1 mg/kg, iv and 5 mg/kg, po
- Type: ADME, organism-based
- condition_description: in vivo
measured_endpoint: Vd (L/kg)
Number in L/kg, nothing else.

Challenge: Entry COc1ccc(-n2ncc3c(NC(C4CC4)C4CC4)nc(C)nc32)c(C)c1 : reported Vd = ?
Response given: 7

----------
- target_under_test: Corticotropin-releasing factor receptor 1 (Homo sapiens, UniProt P34998)
- procedure_details: Antagonist activity at human recombinant CRF1 receptor expressed in CHO cells assessed as inhibition of CRF-induced cAMP production
Mark Fulfilled only when Ki stays strictly below 0.2 µM. Values equal to the cut-off are Not fulfilled.

>>> label("COCCN(CCOC)c1nc(C)nc2c1c(C)nn2-c1ccc(OC)cc1C")
"Fulfilled"
>>> label("CCCNCc1nccn1Nc1nc(C)nc2c1c(C)nn2-c1ccc(OC)cc1C")
"Not fulfilled"
>>> label("CCCNCc1noc(Nc2nc(C)nc3c2c(C)nn3-c2ccc(OC)cc2C)n1")
"Fulfilled"
>>> label("CCCNCc1nnc(Nc2nc(C)nc3c2c(C)nn3-c2ccc(OC)cc2C)o1")
"Not fulfilled"
>>> label("CCCN(CCOC)c1nc(C)nc2c1c(C)nn2-c1ccc(OC)nc1C")
"Fulfilled"
>>> label("COc1ccc(-n2nc(C)c3c(NC(C4CC4)C4CC4)nc(C)nc32)c(C)c1")
"Fulfilled"
>>> label("CCCN(CCOC)c1nc(C)nc2c1c(C)nn2-c1ccc(C(N)=O)cc1C")
"Not fulfilled"
>>> label("CCCN(CCOC)c1nc(C)nc2c1c(C)nn2-c1ccc(OC)cc1OC")
"Fulfilled"
>>> label("CCCN(CCOC)c1nc(C)nc2c1c(C)nn2-c1ccc(OC)cc1C")
"Fulfilled"

We next turn to a different molecule, shown below.
Challenge: is_below(Ki, 0.2 µM) for CC[C@H](COC)Nc1nc(C)nc2c1c(C)nn2-c1ccc(OC)cc1C ?
Response given: Not fulfilled

----------
- System: Liver microsomes
- procedure_details: Intrinsic clearance in human liver microsomes assessed per mg of protein
- Type: ADME, Microsome
measured_endpoint: log10(clearance) (log10 of the value in µL/min/mg)
Recall that a logarithmic scale is used here: each number is log10 of clearance in µL/min/mg.

Below are worked cases with known answers.
>>> reported("CCC(CC)Nc1nc(C)nc2c1cnn2-c1ccc(OC)cc1C")
1.18
>>> reported("CCCNCc1nccn1Nc1nc(C)nc2c1c(C)nn2-c1ccc(OC)cc1C")
1.98
>>> reported("CCCN(CCOC)c1nc(C)nc2c1c(C)nn2-c1ccc(OC)cc1OC")
1.93
>>> reported("CCC[C@H](CO)Nc1nc(C)nc2c1c(C)nn2-c1ccc(OC)cc1C")
1.36
>>> reported("CCCN(CCOC)c1nc(C)nc2c1c(C)nn2-c1ccc(OC)cc1C")
2.24

Challenge: Entry CCCNCc1noc(Nc2nc(C)nc3c2c(C)nn3-c2ccc(OC)cc2C)n1 : reported log10(clearance) = ?
Response given: 1.71

Challenge: Entry CCCN(CCOC)c1nc(C)nc2c1c(C)nn2-c1ccc(C#N)cc1C#N : reported log10(clearance) = ?
Response given: 2.18

Challenge: Entry CCCNCc1nc(Nc2nc(C)nc3c2c(C)nn3-c2ccc(OC)cc2C)no1 : reported log10(clearance) = ?
Response given: 1.46

----------
- target_under_test: Corticotropin-releasing factor receptor 1 (Homo sapiens, UniProt P34998)
- procedure_details: Antagonist activity at human recombinant CRF1 receptor expressed in CHO cells assessed as inhibition of CRF-induced cAMP production
pKi: −log10 of the molar value.
Please mark T if the recorded pKi is equal to or greater than 7, and F if it falls below.

>>> label("COc1ccc(-n2ncc3c(NC(C4CC4)C4CC4)nc(C)nc32)c(C)c1")
"T"
>>> label("CCC(CC)Nc1nc(C)nc2c1c(C)nn2-c1ccc(OC)cc1C")
"T"
>>> label("CC[C@H](CO)Nc1nc(C)nc2c1c(C)nn2-c1ccc(OC)cc1C")
"F"

Challenge: Hi team, for CCCN(CCOC)c1nc(C)nc2c1c(C)nn2-c1ccc(OC)nc1OC , is the recorded pKi at or above 7?
Response given: T

Challenge: Hi team, for CCCN(CCOC)c1nc(C)nc2c1c(C)nn2-c1ccc(C(N)=O)nc1C , is the recorded pKi at or above 7?
Response given: F

----------
- System: Liver microsomes
- procedure_details: Intrinsic clearance in rat liver microsomes assessed per mg of protein
- Type: ADME, Microsome
The reader will find reported clearance values listed item by item below.
Number in µL/min/mg, nothing else.

>>> reported("CCCN(CCOC)c1nc(C)nc2c1c(C)nn2-c1ccc(OC)cc1C")
23
>>> reported("CCCN(CCOC)c1nc(C)nc2c1c(C)nn2-c1ccc(OC)cc1OC")
90
>>> reported("CCCN(CCOC)c1nc(C)nc2c1c(C)nn2-c1cnc(N(C)C)cc1C")
206

Challenge: Please provide the recorded clearance for CCCN(CC(=O)N(C)C)c1nc(C)nc2c1c(C)nn2-c1ccc(OC)cc1C , tested on Liver microsomes.
Response given: 22

----------
- Test system: Liver microsomes
- procedure_details: Intrinsic clearance in rat liver microsomes assessed per mg of protein
- Assay type: ADME, Microsome
Each record gets a class by clearance: lower level = under 40 µL/min/mg, middle level = from 40 µL/min/mg up to 100 µL/min/mg, upper level = 100 µL/min/mg and over

>>> label("CCCN(CCOC)c1nc(C)nc2c1c(C)nn2-c1ccc(C#N)cc1C#N")
"upper level"

Challenge: Hi there! Could you help me figure out the category for COc1ccc(-n2nc(C)c3c(NC(C4CC4)C4CC4)nc(C)nc32)c(C)c1 please?
Response given: lower level

----------
- target_under_test: Corticotropin-releasing factor receptor 1 (Homo sapiens)
- Sequence (P34998 whole entry): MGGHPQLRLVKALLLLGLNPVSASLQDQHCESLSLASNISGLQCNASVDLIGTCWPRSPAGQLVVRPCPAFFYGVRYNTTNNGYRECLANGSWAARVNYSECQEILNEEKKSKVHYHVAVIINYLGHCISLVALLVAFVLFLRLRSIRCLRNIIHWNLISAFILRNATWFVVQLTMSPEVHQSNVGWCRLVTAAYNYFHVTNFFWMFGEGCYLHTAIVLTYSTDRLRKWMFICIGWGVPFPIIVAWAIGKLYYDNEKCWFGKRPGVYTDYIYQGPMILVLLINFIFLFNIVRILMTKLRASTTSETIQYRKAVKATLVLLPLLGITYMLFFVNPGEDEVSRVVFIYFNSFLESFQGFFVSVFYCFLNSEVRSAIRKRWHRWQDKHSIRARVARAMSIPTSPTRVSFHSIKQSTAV
- procedure_details: Antagonist activity at human recombinant CRF1 receptor expressed in CHO cells assessed as inhibition of CRF-induced cAMP production
The reader will find reported pKi values listed item by item below.
Scale note: pKi = -log10(concentration in M).

Below are worked cases with known answers.
>>> reported("CCC[C@@H](CO)Nc1nc(C)nc2c1c(C)nn2-c1ccc(OC)cc1C")
6.24
>>> reported("CCCNCc1cncn1Nc1nc(C)nc2c1c(C)nn2-c1ccc(OC)cc1C")
5.60
>>> reported("CCCN(CCOC)c1nc(C)nc2c1c(C)nn2-c1ccc(C#N)cc1C#N")
6.20

// next entry
Challenge: Entry CCC(CC)Nc1nc(C)nc2c1cnn2-c1ccc(OC)cc1C : reported pKi = ?
Response given: 7.07
